assay: NCI Yeast Anticancer Drug Screen. Data for the rad50 strain (AID 155);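 also: 0% = growth of vehicle-only cultures of the same strain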; conditions: S. cerevisiae rad50 strain growth inhibition; at 50.0 µM; active compounds read high
About 79,000 compounds went through this panel and 15% of them were active in at least one assay; those are over-represented in the sample as a whole.
observable: growth inhibition (%)

[
  {
    "compound": "CC1=C2C(=CC(C)(CO)C2O)C(O)C(C)(O)C12CC2 (stereo unspecified)",
    "result": 21.1
  },
  {
    "compound": "C=CCCCC1(c2ccccc2)C(=O)Oc2ccccc21 (stereo unspecified)",
    "result": 29.6
  },
  {
    "compound": "CC1([N+](=O)[O-])C(=O)C2(N3CCCC3)CCCC2C1c1ccccc1 (stereo unspecified)",
    "result": 0.5
  },
  {
    "compound": "Cc1cccc(N2CCN(S(C)(=O)=O)CC2)c1",
    "result": 16.6
  },
  {
    "compound": "CCC(=O)NC(Nc1cccc(F)c1)(C(F)(F)F)C(F)(F)F",
    "result": -28.5
  },
  {
    "compound": "O=CNc1ccccc1O",
    "result": -2.55
  }
]

* * *

experiment: NCI Yeast Anticancer Drug Screen. Data for the rad50 strain (AID 155);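 also: 0% = growth of vehicle-only cultures of the same strain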; conditions: S. cerevisiae rad50 strain growth inhibition; at 50.0 µM
The panel holds about 79,000 compounds, 15% with a hit somewhere; the sample as a whole holds those more often. Calls of active or inactive are those of the source. Rule as the data show it: active = growth inhibition above about 70%; inactive = the rest. Where a SMILES comes first, the peptide text is derived from it. The star is where a group is joined. Boc = CC(C)(C)OC(=O)*
Possible outcomes: class 1 for active, class 0 for inactive

[
  {
    "molecule": "Cc1ccc(NC(=O)c2cc3c(cc2Cl)Sc2nccn2S3(=O)=O)cc1",
    "class-assignment": "class 0"
  },
  {
    "molecule": "C/C(=C/c1ccccc1)OC(=O)c1ccccc1",
    "class-assignment": "class 0"
  },
  {
    "molecule": "COC(=O)c1ccc(CSc2ccc(N)cc2)cc1",
    "class-assignment": "class 0"
  },
  {
    "molecule": "CCCCc1c(OCC)cc2n(CC)c3ccccc3n2c1=O",
    "class-assignment": "class 0"
  },
  {
    "molecule": "CCCCNc1nc2ccccc2c2c1ncn2CC(C)C",
    "class-assignment": "class 0"
  },
  {
    "molecule": "COc1ccc2c(c1)c(=O)c1ccccc1n2/C=C/C(=O)O",
    "class-assignment": "class 0"
  },
  {
    "molecule": "COc1ccc(C=Nc2ccc(Cl)cc2)cc1",
    "class-assignment": "class 0"
  },
  {
    "molecule": "CN(C)C(=Nc1ccccc1)N(C)N",
    "class-assignment": "class 0"
  },
  {
    "molecule": "CN(C)Cc1cc(N=Nc2ccccc2)ccc1O",
    "class-assignment": "class 0"
  },
  {
    "molecule": "Cn1c(=O)c2[nH]c(SC3CCCCC3)nc2n(C)c1=O",
    "class-assignment": "class 0"
  },
  {
    "molecule": "CNC(=O)CNC(=O)C(NC(=O)CNC(=O)C1CCCN1C(=O)C(C)NC(=O)C(NC(=O)OC(C)(C)C)C(C)C)C(C)C (centres undefined) (Boc-VAPGVG-NHMe; configuration not given here)",
    "class-assignment": "class 0"
  },
  {
    "molecule": "CS(=O)(=O)OCCC(O)COS(C)(=O)=O (centres undefined)",
    "class-assignment": "class 0"
  },
  {
    "molecule": "Cc1ccc(NC(=O)C(=O)Cc2cccc[n+]2[O-])cc1C",
    "class-assignment": "class 0"
  },
  {
    "molecule": "CC1=C(C#N)C(=O)OC1(C)C1CCCC(=O)C1 (centres undefined)",
    "class-assignment": "class 0"
  },
  {
    "molecule": "COC(=O)C12OCC34C(CC5C(C)=C(O)C(=O)CC5(C)C3C(O)C1O)OC(=O)C(OC(C)=O)C24 (centres undefined)",
    "class-assignment": "class 1"
  },
  {
    "molecule": "Nc1ccc2[nH]c(=S)sc2c1",
    "class-assignment": "class 0"
  },
  {
    "molecule": "CCOc1c(Cc2ccccc2)c(=O)n2c3ccccc3n3c(=O)n(C)c(=O)c1c23",
    "class-assignment": "class 0"
  },
  {
    "molecule": "CC(=O)NC1=C(N2CCC2C)C(=O)c2ccccc2C1=O (centres undefined)",
    "class-assignment": "class 0"
  },
  {
    "molecule": "CCCCCCCCCCCCCCCCCCCOc1ccc(OCCCCCCCCCCCC)cc1",
    "class-assignment": "class 0"
  },
  {
    "molecule": "O=C(CCl)Oc1cccc([N+](=O)[O-])c1",
    "class-assignment": "class 0"
  },
  {
    "molecule": "OCCCCC(c1ccc(O)cc1)c1ccc(O)cc1",
    "class-assignment": "class 0"
  },
  {
    "molecule": "c1ccc(C(c2ccccc2)c2cc(-c3cc(C(c4ccccc4)c4ccccc4)[nH]n3)n[nH]2)cc1",
    "class-assignment": "class 0"
  },
  {
    "molecule": "CC(C)(CS(C)(=O)=O)C(=O)O",
    "class-assignment": "class 0"
  },
  {
    "molecule": "CC(O)COC(C)COC(C)c1ccccc1 (centres undefined)",
    "class-assignment": "class 0"
  }
]
